Molecular target: Estrogen receptor (Homo sapiens) (UniProt P03372)
Sequence (P03372 whole entry, looked up): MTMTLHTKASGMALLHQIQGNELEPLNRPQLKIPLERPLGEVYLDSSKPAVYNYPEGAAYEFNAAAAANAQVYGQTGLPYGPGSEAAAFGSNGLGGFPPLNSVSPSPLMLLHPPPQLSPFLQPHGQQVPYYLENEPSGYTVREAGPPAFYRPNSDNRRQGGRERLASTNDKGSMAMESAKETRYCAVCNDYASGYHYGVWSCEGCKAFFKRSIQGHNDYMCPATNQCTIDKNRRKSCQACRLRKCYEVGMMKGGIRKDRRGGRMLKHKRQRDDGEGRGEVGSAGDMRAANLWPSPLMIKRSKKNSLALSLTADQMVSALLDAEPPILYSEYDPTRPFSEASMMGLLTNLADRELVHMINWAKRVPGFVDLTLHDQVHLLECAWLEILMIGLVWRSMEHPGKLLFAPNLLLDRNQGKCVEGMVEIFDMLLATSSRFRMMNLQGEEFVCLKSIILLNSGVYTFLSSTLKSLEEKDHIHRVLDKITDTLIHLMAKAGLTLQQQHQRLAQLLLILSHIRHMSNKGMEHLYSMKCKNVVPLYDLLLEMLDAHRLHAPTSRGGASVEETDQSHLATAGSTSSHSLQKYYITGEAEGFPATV
Assay: qHTS assay to identify small molecule antagonists of the estrogen receptor alpha (ER-alpha) signaling pathway (AID 743069)
Details: HEK293 ER-alpha-UAS-bla, beta-lactamase ratio, antagonist mode; series mostly up to 69.4 µM
The source made the active and inactive calls. Calls follow the shape of the dose curve; as a rule, active = well fitted curve in the direction sought with a large enough effect in the signal ratio in the repeat runs (not every such curve was filed as active); inconclusive = weak or mixed curves, or effect the other way; inactive = no such curve, though single readings can be large or run the other way; the % refers to the signal ratio.
Classes used: active, inactive

Compound: CCOc1cc(Oc2ccc(C(F)(F)F)cc2Cl)ccc1[N+](=O)[O-]
Test target: Estrogen receptor (Homo sapiens) (UniProt P03372)
Group: inactive
//
Compound: CCCCOCCOP(=O)(OCCOCCCC)OCCOCCCC
Test target: Estrogen receptor (Homo sapiens) (UniProt P03372)
Group: inactive
//
Compound: Nc1ccc(-c2ccccc2)cc1
Test target: Estrogen receptor (Homo sapiens) (UniProt P03372)
Group: inactive
//
Compound: CC(C)Oc1cc(-n2nc(C(C)(C)C)oc2=O)c(Cl)cc1Cl
Test target: Estrogen receptor (Homo sapiens) (UniProt P03372)
Group: active
//
Compound: NCc1cccnc1
Test target: Estrogen receptor (Homo sapiens) (UniProt P03372)
Group: inactive
//
Compound: CC1(C)C(C=C(Cl)Cl)C1C(=O)OC(C#N)c1cccc(Oc2ccccc2)c1 (stereo not given)
Test target: Estrogen receptor (Homo sapiens) (UniProt P03372)
Group: inactive
//
Compound: Cc1ccc2c(c1N)C(=O)c1ccccc1C2=O
Test target: Estrogen receptor (Homo sapiens) (UniProt P03372)
Group: inactive
//
Compound: O=S(=O)(Oc1ccc(Cl)cc1)c1ccc(Cl)cc1
Test target: Estrogen receptor (Homo sapiens) (UniProt P03372)
Group: inactive
//
Compound: CNC(=O)N(C)c1nnc(C(C)(C)C)s1
Test target: Estrogen receptor (Homo sapiens) (UniProt P03372)
Group: inactive
//
Compound: O=[N+]([O-])c1c(Cl)c(Cl)c(Cl)c(Cl)c1Cl
Test target: Estrogen receptor (Homo sapiens) (UniProt P03372)
Group: inactive
//
Compound: CCN(CC)C(=O)SCc1ccc(Cl)cc1
Test target: Estrogen receptor (Homo sapiens) (UniProt P03372)
Group: inactive
//
Compound: O=[N+]([O-])c1cccc2ccccc12
Test target: Estrogen receptor (Homo sapiens) (UniProt P03372)
Group: inactive
//
Compound: CC(C)=CC1C(C(=O)OCc2coc(Cc3ccccc3)c2)C1(C)C (stereo not given)
Test target: Estrogen receptor (Homo sapiens) (UniProt P03372)
Group: inactive
//
Compound: CC(C)c1ccc(CO)cc1
Test target: Estrogen receptor (Homo sapiens) (UniProt P03372)
Group: inactive
//
Compound: CCCCCCOC(=O)c1ccccc1C(=O)OCCCCCC
Test target: Estrogen receptor (Homo sapiens) (UniProt P03372)
Group: inactive
//
Compound: Nn1cnnc1
Test target: Estrogen receptor (Homo sapiens) (UniProt P03372)
Group: inactive
//
Compound: O=P(O)(O)CCCl
Test target: Estrogen receptor (Homo sapiens) (UniProt P03372)
Group: inactive
//
Compound: CCOCN(C(=O)CCl)c1c(C)cccc1CC
Test target: Estrogen receptor (Homo sapiens) (UniProt P03372)
Group: active
//
Compound: Brc1ccc(Oc2cc(Br)c(Br)cc2Br)c(Br)c1
Test target: Estrogen receptor (Homo sapiens) (UniProt P03372)
Group: inactive
//
Compound: Oc1c(Cl)c(Cl)c(Cl)c(Cl)c1Cl
Test target: Estrogen receptor (Homo sapiens) (UniProt P03372)
Group: active
